Would you kindly list Kd for each of these compounds?
# MEASUREMENT TARGET: JNK2 (Homo sapiens)
# Construct: purchased Eurofins Pharma Discovery (KINOMEscan)
# Sequence (P45984 whole entry): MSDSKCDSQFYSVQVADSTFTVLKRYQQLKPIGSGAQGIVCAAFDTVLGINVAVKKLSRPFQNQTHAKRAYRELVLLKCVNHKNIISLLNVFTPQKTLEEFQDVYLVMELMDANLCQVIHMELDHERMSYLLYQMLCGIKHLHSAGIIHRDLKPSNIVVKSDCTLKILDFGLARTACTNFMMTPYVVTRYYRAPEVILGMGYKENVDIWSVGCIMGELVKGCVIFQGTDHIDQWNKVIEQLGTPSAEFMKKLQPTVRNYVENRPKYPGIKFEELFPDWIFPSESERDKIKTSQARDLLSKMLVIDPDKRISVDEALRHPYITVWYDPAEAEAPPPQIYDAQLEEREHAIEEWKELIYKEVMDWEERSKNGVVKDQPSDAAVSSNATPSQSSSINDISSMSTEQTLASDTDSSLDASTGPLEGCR
# ASSAY: KINOMEscan Kd determination, JNK2
# EXPERIMENTAL PARAMETERS: duplicate, mean, N.B. = no binding at < 30 μM
Give bare numbers, in nM.

Use these answered entries as a reference point.
INSERT INTO results (smiles_record, recorded_endpoint, obs_value) VALUES
  ('ON=C1c2ccccc2-c2nc3cc(F)ccc3nc21', 'Kd', 620),
  ('ON=C1c2ccccc2-c2nc3c(F)c(F)ccc3nc21', 'Kd', 910),
  ('ON=C1c2ccccc2-c2nc3c(CN4CCOCC4)cccc3nc21', 'Kd', 880),
  ('CC(C)(C)c1ccc2nc3c(nc2c1)-c1ccccc1/C3=N/O', 'Kd', 1600);

Read the next record carefully.
Challenge: Answer with reported Kd of "COC(=O)c1ccc2nc3c(nc2c1)C(=NO)c1ccccc1-3"
Response given: 2400
